# TGI annotations
System: NCI-H23 lung
Experiment: NCI tumour cell line growth inhibition, 48 h

MOLECULE	TARGET UNDER TEST	TGI
Cc1ccccc1NC(=O)/C=N/O	NCI-H23 lung	> 100 µM
CCCCC(C)/C=C/C(=O)C1=C(O)/C(=C/C(=O)O)OC1=O (configuration not stated)	NCI-H23 lung	> 100 µM
O=C1C2=Cc3ccccc3OC2(O)Oc2ccccc21 (configuration not stated)	NCI-H23 lung	> 100 µM
CSc1nc(Nc2ccccc2Cl)c2c(N)nn(C)c2n1	NCI-H23 lung	> 100 µM
CC(C)(C)OC(=O)NCCCCn1c2c(c3ccccc3c1=O)C(=O)c1ccccc1-2	NCI-H23 lung	43.4 µM
COc1cccc(-c2nn(-c3ccccc3)cc2-c2ccnc(NCCCNC(=O)c3cccc(C(F)(F)F)c3)c2)c1	NCI-H23 lung	24.2 µM
[N-]=[N+]=NC1(c2ccccc2)C(=O)C(Cl)=C(c2ccccc2)N(c2ccccc2)C1=O (configuration not stated)	NCI-H23 lung	> 100 µM
O=[N+]([O-])c1cccc(-c2nc(-c3ccc(Cl)cc3Cl)cn2-c2ccccc2)c1	NCI-H23 lung	> 27.1 µM
OC(c1ccc(Cl)cc1)(c1ccc(Cl)cc1)c1cncnc1	NCI-H23 lung	61.6 µM
CNC(=O)c1cc(Oc2cccc3nc(NC(=O)Nc4cc(C(F)(F)F)cc(C(F)(F)F)c4)ccc23)ccn1	NCI-H23 lung	42.7 µM
CC1(C)CCCC2(C)C3C(O)CC2(C)C(O)C31 (configuration not stated)	NCI-H23 lung	> 100 µM
Cc1coc2c1C(=O)C(=O)c1ccccc1-2	NCI-H23 lung	4.09 µM
COC(=O)[C@H](Cc1ccccc1)NC(=O)N(CCC#N)CCCCN(CCC#N)C(=O)N[C@@H](Cc1ccccc1)C(=O)OC	NCI-H23 lung	> 100 µM
COc1ccc(/C=C2\C[C@H]3[C@@H]4CC=C5C[C@@H](OC(C)=O)CC[C@]5(C)[C@H]4CC[C@]3(C)\C2=N\O)cc1OC	NCI-H23 lung	> 100 µM
C[P+](C)(C)C	NCI-H23 lung	> 100 µM
O=C(c1cccc2ccccc12)C1S(=O)(=O)OCCOS1(=O)=O	NCI-H23 lung	> 100 µM
OB(O)c1ccccc1C#Cc1ccccc1B(O)O	NCI-H23 lung	90.9 µM
O=c1cc(-c2ccccc2)[nH]c2ccc(S)cc12	NCI-H23 lung	> 100 µM
C/C(=N\NC(N)=S)c1ccc(C)c(C)c1	NCI-H23 lung	> 100 µM
Cc1cccc(C)c1NC(=O)CCC/C(CC(=O)c1ccc(F)cc1)=N\NC(=O)C(=O)NN	NCI-H23 lung	> 100 µM
Cc1cccc(NC(=O)O/N=C(\Cl)C(C)C)c1	NCI-H23 lung	29.1 µM
CC(C)(C)OP(=O)(OC(C)(C)C)C(O)c1ccc(/C=C(\C#N)C(N)=O)cc1 (configuration not stated)	NCI-H23 lung	> 100 µM

====

# TGI annotations
System: OVCAR-8 ovarian
Assay: NCI tumour cell line growth inhibition, 48 h

MOLECULE	TARGET UNDER TEST	TGI
O=[N+]([O-])c1cccc(-c2nc(-c3ccc(Cl)cc3Cl)cn2-c2ccccc2)c1	OVCAR-8 ovarian	2.64 µM
COC1=N[C@H](C(C)C)C(OC)=N[C@H]1Cc1ccc(C[C@@H]2N=C(OC)[C@@H](C(C)C)N=C2OC)s1	OVCAR-8 ovarian	> 100 µM
CCC(=O)NI1OC(=O)c2ccccc21	OVCAR-8 ovarian	> 100 µM
O=C(O)Cc1ccc(Nc2nc3ccccc3nc2C(=O)O)cc1	OVCAR-8 ovarian	> 100 µM
CNCCN[C@@H]1c2cc3c(cc2[C@@H](c2cc(OC)c(O)c(OC)c2)[C@H]2C(=O)OC[C@@H]21)OCO3	OVCAR-8 ovarian	2.22 µM
CC(=O)N1c2ccccc2C2=NN(C)C(=N)SC21 (centres undefined)	OVCAR-8 ovarian	> 100 µM
COC(=O)c1cccc2c3ccccc3c3ccccc3c12	OVCAR-8 ovarian	58.2 µM
Cc1ccc(S(=O)(=O)N2CCCSCCSCCCN(S(=O)(=O)c3ccc(C)cc3)CC2)cc1	OVCAR-8 ovarian	> 100 µM
Cc1cccc(C)c1NC(=O)CCc1nnc2s/c(=C\c3ccc(N(C)C)cc3)c(=O)n12	OVCAR-8 ovarian	> 100 µM
